Taken from patent US11827628B2.

# Tested on: up-regulation of ICAM-1 (CD54) by IFNγ in A549 lung epithelial cells
# test-protocol: A549 Epithelial Line Stimulated with IFNγ (ICAM-1 surface expression, FACS)
# Type: cell-based, human
# conditions-used: A549 epithelial line stimulated with IFNγ; ICAM-1 expression by FACS; read-out: IC50, Example 43
// reported IC50 for each item listed

>  <compound>
N#CCCc1ccc(Nc2nc(Nc3cccc(S(N)(=O)=O)c3)ncc2F)cc1 [III-14]

>  <IC50 (µM)>
3.6

$$$$
>  <compound>
N#CCc1ccc(Nc2nc(Nc3ccc(Cl)c(S(N)(=O)=O)c3)ncc2F)cc1 [III-8]

>  <IC50 (µM)>
14.5

$$$$
>  <compound>
Cc1cc(Nc2nc(Nc3ccc(F)c(S(N)(=O)=O)c3)ncc2F)ccc1OC(C)C#N (racemic) [Compound I-69]

>  <IC50 (µM)>
5.64

$$$$
>  <compound>
Cc1ccc(Nc2ncc(F)c(Nc3ccc(OC(C)(C)C#N)cc3)n2)cc1S(N)(=O)=O [Compound I-73]

>  <IC50 (µM)>
5.56

$$$$
>  <compound>
Cc1cc(Nc2nc(Nc3ccc(S(N)(=O)=O)cc3)ncc2F)ccc1OCC#N [Compound I-22]

>  <IC50 (µM)>
14.4

$$$$
>  <compound>
Cc1noc(COc2ccc(Nc3nc(Nc4ccc(S(N)(=O)=O)cc4)ncc3F)cc2)n1 [Compound I-268]

>  <IC50 (µM)>
5.08

$$$$
>  <compound>
N#CCOc1ccc(Nc2nc(Nc3ccc(Cl)c(S(N)(=O)=O)c3)ncc2F)cc1 [Compound I-21]

>  <IC50 (µM)>
22.7

$$$$
>  <compound>
N#CCOc1ccc(Nc2nc(Nc3cccc(S(N)(=O)=O)c3)ncc2F)cc1F [Compound I-12]

>  <IC50 (µM)>
3.2

$$$$
>  <compound>
CN1CCN(c2ccc(Nc3ncc(F)c(Nc4ccc(OCC#N)c(F)c4)n3)cc2S(N)(=O)=O)CC1 [Compound I-10]

>  <IC50 (µM)>
6.55

$$$$
>  <compound>
Cc1noc(COc2ccc(Nc3nc(Nc4ccc(C)c(S(N)(=O)=O)c4)ncc3F)cc2)n1 [Compound I-259]

>  <IC50 (µM)>
7.51

$$$$
>  <compound>
Cc1cc(COc2ccc(Nc3nc(Nc4ccc(C)c(S(N)(=O)=O)c4)ncc3F)cc2C)no1 [Compound I-234]

>  <IC50 (µM)>
8.16

$$$$
>  <compound>
CC(Oc1ccc(Nc2nc(Nc3cccc(S(N)(=O)=O)c3)ncc2F)cc1)C(N)=O (racemic) [Compound I-117]

>  <IC50 (µM)>
36.4

$$$$
>  <compound>
Cc1ccc(Nc2ncc(F)c(Nc3ccc(NC(=O)CC#N)c(Cl)c3)n2)cc1S(N)(=O)=O [Compound I-83]

>  <IC50 (µM)>
14.9

$$$$
>  <compound>
Cc1ccc(Nc2ncc(F)c(Nc3ccc(OCC#N)c(F)c3)n2)cc1S(N)(=O)=O [Compound I-11]

>  <IC50 (µM)>
17.6

$$$$
>  <compound>
Cc1ccc(Nc2ncc(F)c(Nc3ccc(Cn4ccnc4)cc3)n2)cc1S(N)(=O)=O [III-82]

>  <IC50 (µM)>
24.2

$$$$
>  <compound>
Cc1ccc(Nc2ncc(F)c(Nc3ccc(OC4CCCN(C)C4)c(Cl)c3)n2)cc1S(N)(=O)=O (racemic) [II-3]

>  <IC50 (µM)>
11.9

$$$$
